# tested_on: hOCT2 (Homo sapiens, UniProt O15244)
# Sequence (O15244 whole entry): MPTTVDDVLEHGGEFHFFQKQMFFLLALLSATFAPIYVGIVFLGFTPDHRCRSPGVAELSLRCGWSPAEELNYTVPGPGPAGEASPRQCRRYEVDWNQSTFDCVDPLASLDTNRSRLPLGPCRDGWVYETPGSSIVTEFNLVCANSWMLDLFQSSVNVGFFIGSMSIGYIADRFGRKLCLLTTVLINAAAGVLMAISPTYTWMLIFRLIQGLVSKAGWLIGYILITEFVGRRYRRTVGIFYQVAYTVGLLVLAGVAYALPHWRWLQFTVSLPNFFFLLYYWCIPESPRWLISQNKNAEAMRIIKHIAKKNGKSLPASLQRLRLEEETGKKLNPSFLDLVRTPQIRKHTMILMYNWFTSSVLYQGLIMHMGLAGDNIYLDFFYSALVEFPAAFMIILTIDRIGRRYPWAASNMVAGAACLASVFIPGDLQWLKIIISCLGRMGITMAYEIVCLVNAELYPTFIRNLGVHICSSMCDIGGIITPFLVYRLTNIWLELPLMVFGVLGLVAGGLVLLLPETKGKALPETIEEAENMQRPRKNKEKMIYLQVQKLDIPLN
# measurement_description: Inhibition of hOCT2-mediated morphine uptake in HEK293-hOCT2 cells
pIC50: −log10 of the molar value.
endpoint: pIC50

>>> print(df.to_string())
                                   compound  endpoint  readout_value
0            CN(C)CCC=C1c2ccccc2CCc2ccccc21     pIC50           6.39
1  CNCCC(Oc1ccc(C(F)(F)F)cc1)c1ccccc1 (centres unmarked)     pIC50           5.48

====

# tested_on: hOCT1 (Homo sapiens, UniProt O15245)
# Sequence (O15245 whole entry): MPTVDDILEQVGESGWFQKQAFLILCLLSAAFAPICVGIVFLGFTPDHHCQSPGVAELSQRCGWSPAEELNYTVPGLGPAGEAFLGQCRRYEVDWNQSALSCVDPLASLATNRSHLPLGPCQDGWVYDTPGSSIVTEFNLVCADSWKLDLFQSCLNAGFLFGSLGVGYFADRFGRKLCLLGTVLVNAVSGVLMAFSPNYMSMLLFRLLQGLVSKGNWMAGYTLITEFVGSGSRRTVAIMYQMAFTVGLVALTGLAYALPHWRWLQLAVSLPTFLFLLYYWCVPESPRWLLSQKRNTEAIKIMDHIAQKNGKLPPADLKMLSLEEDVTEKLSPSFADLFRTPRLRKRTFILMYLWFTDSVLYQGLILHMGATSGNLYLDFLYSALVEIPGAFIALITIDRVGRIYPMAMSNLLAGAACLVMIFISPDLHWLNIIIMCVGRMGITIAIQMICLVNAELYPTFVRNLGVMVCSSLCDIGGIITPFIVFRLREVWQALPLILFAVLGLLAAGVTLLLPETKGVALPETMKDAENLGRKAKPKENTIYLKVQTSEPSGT
# measurement_description: cell-based
pIC50: −log10 of the molar value.
endpoint: pIC50

>>> print(df.to_string())
                                   molecule  readout_value
0            CN(C)CCC=C1c2ccccc2CCc2ccccc21           5.72
1  CNCCC(Oc1ccc(C(F)(F)F)cc1)c1ccccc1 (centres unmarked)           5.04
2  CCc1c2c(nc3ccc(OC(=O)N4CCC(N5CCCCC5)CC4)cc13)-c1cc3c(c(=O)n1C2)COC(=O)[C@]3(O)CC           5.87
3             CN(C)CCCN1c2ccccc2CCc2ccccc21           5.39
4  Cc1nccn1CC1CCc2c(c3ccccc3n2C)C1=O (centres unmarked)           6.57
